The origin of these recorded values is the supplement of paper PMC6555819.

Recorded PBM binding z-score, one value per entry.
- System: PPARg:RXRa (NR concentration 180 nM, RXRa partner concentration 90 nM)
- Test description: PBM binding z-score (relative to random genomic background probes); higher = stronger binding; sequences stand for … in GC…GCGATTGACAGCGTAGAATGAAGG

Query sequence	PBM binding z-score
GCTGGTTGGTCAGTAAAAGGTCACACACCGGTCG	2.91
CCTACTGGGCCAAAAAGGTCATTTATGCCGATAA	3.08
CGTCCAAGGTCAGAGAGGTCAGTGATTGCCGAGT	3

---

- Tested on: PPARg:RXRa DBDmut IVT, anti-RXR (DBD mutation: RXRa K156A/R161A, NR concentration 270 nM, RXRa partner concentration 90 nM)
- Test description: PBM binding z-score (relative to random genomic background probes); higher = stronger binding; sequences stand for … in GC…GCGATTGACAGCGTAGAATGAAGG
Label FALSE if PBM binding z-score falls below 3; label TRUE in every other case.

Query sequence	Qualitative label
CCTTACGGGTCACTGACTGGTTATAGCATTTGGA	TRUE
CCTACTGGGCCAAAAGGGTCATTGATGCCGATAA	TRUE
CCTTACGGGTCACCAGGTTATAGCACGACGAGCG	TRUE
AGAATGAGGTTATACGTAGATTAGGGAAGAAAGT	TRUE
TCTTGTAGATCAACAGGAGGGTAAGAAAGATCGA	FALSE
ACTATCAGGCCAAGTTTGGGTCACTCAAACAAAG	FALSE
TCATATAGGTAAACAGGCGAAAGTCCGTAAGTTA	TRUE
TGTCAAAGTTCACAGGTAACGTAAGTATCCACAC	FALSE
CCTCGGAGGACAGAAGGTCAGAGTTGTCCGCTTT	FALSE
CCAGACAGGTGAGAAAGTAACTCAGCCTCGATTA	FALSE
TCGAGTAGGTTACCAATGCGGCATTCAGCTTTCT	TRUE
TGAATGAGGTTAAAGATCAGGGACCGTGGCGTCG	FALSE
CCTACTGGGCCAAGTTCATTGATCAGTCAAAGCA	TRUE
TCAGACAGGTGAAGGTTACTCAGGTACGCAGTCG	FALSE
GATACAGGGTCAGCTAGAGGCCAGAGGATGGAAA	FALSE
CCTTACGGGTCAAGGTTATGGCACGGGTGGTACG	FALSE
GCGACTGGGGCAAAGCAGGTTACCAGAAGGTTGG	TRUE
TGTCGGAGGACACGAAGGTCAGAGCTTTCCAGAG	FALSE
ACTATTGGTTGACTTAGGGCAACCGATACGACGC	FALSE
CATACAGGGTCAGCTAGGCCGGAGTAGGGACGGC	FALSE
TCAGATAGGTGAAGGTAACTCAGGTACGCAGTCG	TRUE
CGTCCAAGGTCATAGGAAGTCAGTGAAGACAGAT	TRUE
TGTCAAAGTTCAAAGGTAACGAAAGTATCCACAC	FALSE
CAAACTAGGCCAAGAGGTCAAAGTCCGCTTCCCG	TRUE
AATACAGGGTCATCGTAGGCCAAAGTACGCACAG	FALSE
CGTCCAAGGTCAGCAGGTCCGTGAAAGCGACGTG	FALSE
GATAGAGGGTCAAGGCCAGAGTACGCGTATTGAT	FALSE
CCGGCTGGGGCAAGGTTACCATAACGCACAGCCA	FALSE
GATACAGGGTCAGCTAGAGACCAGAGTATGGAAA	FALSE
TCTTGTAGATAAAAGGTTAAGAAAGCCGAAGCCT	FALSE
AGAATGAGGTTATTAAGATCAAGGAATTGCGGTC	FALSE
AGACTGAGGTTATTAAGATCAGGGAATTGCGGTC	FALSE
ACTTACGGGTCAACGATGTTATAGCACGCGTATA	TRUE
ATATGTAGGTTAGCTGGGGTCTTTCAGACTAGGC	TRUE
GCTAGTTGGTCAGTCAAAGGTCACACACCGGTCG	FALSE
ATCTCTAGGTAAAACTCAGTTCAGTGAAGAACGC	FALSE

---

- Test system: PPARg:RXRa (NR concentration 180 nM, RXRa partner concentration 90 nM)
- Test description: PBM binding z-score (relative to random genomic background probes); higher = stronger binding; sequences stand for … in GC…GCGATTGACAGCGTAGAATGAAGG
Observation type: PBM binding z-score

Query sequence	Assay result
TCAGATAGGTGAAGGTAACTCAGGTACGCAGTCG	1.01
GCTATTAGTTGAAAGGGCAACAGAATGATTCTCG	3.11
CGTCCAAGGTCAGGAGGTCAGTGAAAGCGACGTG	4.93
CCTTACGGGTCACTGACAGGTTCTAGCATTTGGA	3.89

---

Recorded PBM binding z-score, one value per entry.
- Tested on: VDR:RXRa (NR concentration 270 nM, RXRa partner concentration 90 nM)
- Test description: PBM binding z-score (relative to random genomic background probes); higher = stronger binding; sequences stand for … in GC…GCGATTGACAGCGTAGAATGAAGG

Query sequence	Measurement target	PBM binding z-score
AGTCAAATTTCAGGACGAGGTAACGTAAAGCACG	VDR:RXRa (NR concentration 270 nM, RXRa partner concentration 90 nM)	-0.0744
CTACCAAGTTGAACAAGGTCGTTGATTACTATTC	VDR:RXRa (NR concentration 270 nM, RXRa partner concentration 90 nM)	5.18
TCGAGTAGGTTAGGGGGATTCAGAATGGCGTCGA	VDR:RXRa (NR concentration 270 nM, RXRa partner concentration 90 nM)	0.8
CAAACTAGGTCGAGGTCAAAGTCGGTTTGTGCCA	VDR:RXRa (NR concentration 270 nM, RXRa partner concentration 90 nM)	5.52
CCGAGTAGGTAATGGGGCATTCAGGCAACGGTGA	VDR:RXRa (NR concentration 270 nM, RXRa partner concentration 90 nM)	-0.509
TCTGCTAGGGCAGTTGGTCAGCTAACGAGCTGCC	VDR:RXRa (NR concentration 270 nM, RXRa partner concentration 90 nM)	-0.663
TAGCCTAGGTCATGGGGGCCAGTATAGTGTCGGC	VDR:RXRa (NR concentration 270 nM, RXRa partner concentration 90 nM)	5.43
TCGCGTAGGTTACCAATGGGGCATTCAGCTTTCT	VDR:RXRa (NR concentration 270 nM, RXRa partner concentration 90 nM)	0.236
TAGCCTAGGGCAGATCGGGCCAGTATACGCTATA	VDR:RXRa (NR concentration 270 nM, RXRa partner concentration 90 nM)	-0.562
TCTAGTTGGTCAAAGGACACACACTCGAAATGCG	VDR:RXRa (NR concentration 270 nM, RXRa partner concentration 90 nM)	1.05
CCTGCTAGGTCAATGGTCCGCTAAAGCAGCTCGC	VDR:RXRa (NR concentration 270 nM, RXRa partner concentration 90 nM)	0.759
CCTACTGGGCCAAATAGGTCATTGATGCCGATAA	VDR:RXRa (NR concentration 270 nM, RXRa partner concentration 90 nM)	2.51
TCGAGTAGGTTACTCGGGGCATTCAGCCAACATA	VDR:RXRa (NR concentration 270 nM, RXRa partner concentration 90 nM)	3.33
GGAACGAGGGCATTCGAGATGATAGCATGGCGAT	VDR:RXRa (NR concentration 270 nM, RXRa partner concentration 90 nM)	1.45
CCTACTGGGCCATCAGGTTATTGATATCAACGTT	VDR:RXRa (NR concentration 270 nM, RXRa partner concentration 90 nM)	0.0822
TCTTGTAGATCAAGCAAGTTAAGAAAGCCTGAGT	VDR:RXRa (NR concentration 270 nM, RXRa partner concentration 90 nM)	0.328
GATACAGGGTCAGGGCCAGAGTACGCGTATTGAT	VDR:RXRa (NR concentration 270 nM, RXRa partner concentration 90 nM)	3.14
ATACCAAGGTGATCGTGAGGTTGTTGATACTAAC	VDR:RXRa (NR concentration 270 nM, RXRa partner concentration 90 nM)	0.679
CCTTCTAGGTCATGGTCAGCTAATCTACAGTATG	VDR:RXRa (NR concentration 270 nM, RXRa partner concentration 90 nM)	2.07
TCGAGTAGGTTAGTCGAGGCATTCAGCCAACATA	VDR:RXRa (NR concentration 270 nM, RXRa partner concentration 90 nM)	-0.258
AGAACGAGGGCAATGAGTTGATCGCACGGGTGGC	VDR:RXRa (NR concentration 270 nM, RXRa partner concentration 90 nM)	5.13
CGTCCAAGGTCAATGCTAAGTCAGTGAAAGCATT	VDR:RXRa (NR concentration 270 nM, RXRa partner concentration 90 nM)	3.83
TATCCTAGGTCATGGGCCAGTATACCACGCGAAC	VDR:RXRa (NR concentration 270 nM, RXRa partner concentration 90 nM)	2.75
TATACAGGGCCAAAGGCCAGAGTACGAATGTCGA	VDR:RXRa (NR concentration 270 nM, RXRa partner concentration 90 nM)	0.13
